Taken from paper PMC7346179.

# experimental protocol: 7-day PK study in healthy rats
# Type: in vivo
# particulars: healthy rats, SC 0.225 mg/kg BID 7 days; WinNonlin simulation; read-out: Cmax at steady state, plasma

- molecule: "CCCCCC[n+]1ccccc1-c1c2nc(c(-c3cccc[n+]3CCCCCC)c3ccc([n-]3)c(-c3cccc[n+]3CCCCCC)c3nc(c(-c4cccc[n+]4CCCCCC)c4ccc1[n-]4)C=C3)C=C2.[Mn+3] [MnHex]"
  Cmax (nM): 220
